Kindly state composite z-score for each of the entries shown.
# assay.explanation: compound binding in COS7 lysate, probe aLAP1, primary screen, cell lysate, small-molecule microarray (AID 1124);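 also: lysate comes from COS7 cells expressing LAP1 and is applied at 0.3 µg/mL; score merges spot fluorescence near 667 nm with signal-to-noise over triplicate slides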
# recorded.conditions: probe aLAP1, fluorescence, higher = more signal
One number for each entry.

C=C(/C(=C/C[C@H](OC(C)=O)c1ccccc1OCCO)c1cc(C(=O)OC)ccc1OC)C(C)C    -0.0654
CN1C(=O)C2C=CC(C(O)c3cccc(O)c3)N(Nc3ccccc3)C2C1=O (stereo not drawn)    -0.279
CO[C@]12C=C(Br)[C@@H](C[C@@H]1c1cccc(C)c1)[C@@]1(CO1)C2=O    -0.071
O=C1NC(=O)C2C1C=CC(C(O)CCc1ccccc1)N2Nc1ccc(Cl)cc1Cl (stereo not drawn)    0.925
C=CCN1Cc2ccccc2[C@H]2OC(c3ccc(OCCCO)cc3)=N[C@@]2(CC=C)C1=O    0.373
O=C1O[C@H](c2ccccc2)[C@H](c2ccccc2)N2[C@H]1[C@@H](C(=O)O)[C@]1(C(=O)Nc3ccc(C#CC4=CCCCC4)cc31)[C@H]2c1ccc(O)cc1    0.384
NC(=O)NCC#Cc1ccc2c(c1)[C@]1(C(=O)N2)[C@H](C(=O)NC[C@H](O)c2ccccc2)[C@H]2C(=O)O[C@H](c3ccccc3)[C@H](c3ccccc3)N2[C@@H]1c1ccc(OCCO)cc1    0.587
[N-]=[N+]=NCc1ccccc1[C@@H]1OC(c2ccc(OCCCO)cc2)=N[C@]1(CCS(=O)(=O)c1ccccc1)C(=O)NCC(O)CO (stereo partly drawn)    1.01

Look at each compound and report its composite z-score.
1. O=C1c2ccccc2[C@](Cc2ccccc2I)(C(=O)NCC(F)(F)F)[C@H](c2ccc(CO)cc2)N1C1CCCCC1
2. CC(C)N1CC=CC23O[C@@H]4C=CCOC(=O)[C@@H]4[C@H]2C(=O)N(CCCO)[C@@H]3C1=O (stereo partly drawn)
3. C=CC[C@]1(C(=O)O)COC(c2ccc(OCCCO)cc2)=N1
4. C=C[C@@H](OC)[C@H](OC(=O)Nc1ccc(SC)cc1)c1ccc(O)c(F)c1
5. C[C@]1(C(=O)NC2CC2)c2ccccc2C(=O)N(Cc2ccccc2)[C@H]1c1ccc(CO)cc1

**A:**
1. 0.326
2. 0.633
3. 0.308
4. 0.683
5. 0.11

Look at each compound and report its composite z-score.
1. COC(=O)[C@@]1(Cc2ccc(OC)cc2)[C@@H]2C(=CC(=O)[C@H]2CC(=O)C(=O)N(C)C)CN1C(=O)c1ccccc1
2. CC(C)C(=C=CC[C@H](O)c1cccc(OCCO)c1)C[C@H](O)c1cc(Cl)cc(Cl)c1O
3. COCCCNC(=O)[C@@]1(Sc2ccc(C)cc2)CC(=O)N(C2CCCCC2)[C@@H]1c1ccc(CO)cc1
4. CC(C)(C)OC(=O)CC[C@@]1(C(=O)NCc2ccccc2)N=C(c2ccc(OCCCO)cc2)O[C@@H]1c1ccccc1N=[N+]=[N-]
5. O=C1O[C@@H](c2ccccc2)[C@@H](c2ccccc2)N2[C@@H](c3ccc(O)cc3)[C@]3(C(=O)Nc4ccc(C#CC5=CCCCC5)cc43)[C@@H](C(=O)NC[C@H](O)c3ccccc3)[C@H]12
6. NC(=O)NCC#Cc1ccc2c(c1)[C@]1(C(=O)N2)[C@H](C(=O)O)[C@H]2C(=O)O[C@H](c3ccccc3)[C@H](c3ccccc3)N2[C@@H]1c1ccc(OCCO)cc1

**A:**
1: 0.536; 2: 0.0431; 3: 1.21; 4: 0.935; 5: 0.553; 6: 0.613

Look at each compound and report its composite z-score.
1. COc1cc(CO)cc(I)c1O[C@H]1C=C(C(=O)NCCO)C[C@@H](NCc2ccc(F)cc2)[C@@H]1O
2. C=CCNC(=O)[C@H]1[C@@H]2C(=O)O[C@@H](c3ccccc3)[C@@H](c3ccccc3)N2[C@@H](c2ccc(O)cc2)[C@]12C(=O)Nc1ccc(C#CC3(O)CCCCCC3)cc12
3. COC1OC[C@]2(C)[C@H]3C4=C(CN2C(=O)OC(C)(C)C)[C@H](C)C(CO)C(CO)C4CC[C@@H]13 (stereo partly drawn)
4. N#Cc1ccc(C(O)C2C=CC3C(=O)N(c4ccccc4)C(=O)C3N2Nc2ccccc2)cc1 (stereo not drawn)

**A:**
[0.205, 0.355, 0.875, 0.736]

Look at each compound and report its composite z-score.
1. C[C@H]1NC(=O)[C@@]23C(=O)N[C@@H](Cc4ccccc4)C2[C@H](C)[C@@]2(C)O[C@H]2C3/C=C/C/C=C\CNC(=O)[C@H](Cc2ccccc2)NC1=O (stereo partly drawn)
2. COc1ccc(CCNC(=O)[C@@H]2c3ccccc3C(=O)N(Cc3cc(C(F)(F)F)cc(C(F)(F)F)c3)[C@H]2c2ccc(CO)cc2)cc1
3. O=C1O[C@@H](c2ccccc2)[C@@H](c2ccccc2)N2[C@@H](c3ccc(OCCO)cc3)[C@]3(C(=O)Nc4ccccc43)[C@@H](C(=O)O)[C@H]12
4. COc1ccc([Si](C)(C)[C@@H]2[C@@H](CC(=O)N(CCO)Cc3ccccc3)O[C@]3(C(=O)N(Cc4cccc(N5CCOC5=O)c4)c4ccccc43)[C@H]2C)cc1
5. COCCOC(=O)N1C(=O)[C@@]2(c3cc(C#CC4=CCCCC4)ccc31)[C@H](c1ccc(OCCO)cc1)N1[C@H](c3ccccc3)[C@H](c3ccccc3)OC(=O)[C@H]1[C@@H]2C(=O)NC[C@H](O)c1ccccc1

**A:**
1. 0.0898
2. 0.566
3. 0.741
4. 0.766
5. 0.875

src = PubChem BioAssay
